Target System: PIM1 (Homo sapiens (Human), UniProt P11309)
Sequence (P11309 whole entry): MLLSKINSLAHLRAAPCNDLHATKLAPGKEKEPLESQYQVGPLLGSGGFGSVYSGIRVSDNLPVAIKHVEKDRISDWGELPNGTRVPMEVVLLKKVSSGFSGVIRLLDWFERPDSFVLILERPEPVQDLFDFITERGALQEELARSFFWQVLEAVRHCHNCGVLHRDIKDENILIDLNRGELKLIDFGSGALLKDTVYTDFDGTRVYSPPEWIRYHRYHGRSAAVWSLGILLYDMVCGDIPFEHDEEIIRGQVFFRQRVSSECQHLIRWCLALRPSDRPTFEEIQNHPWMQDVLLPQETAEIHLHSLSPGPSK
Protocol Description: biochemical
Assay type: biochemical
Stated Conditions: 10 μM ATP, 90 min, room temperature; read-out: PIM1 LC3K (KI)
Description: A fluorescent-labeled Pim-specific peptide substrate, was custom synthesized by American Peptide Company (Sunnyvale, Calif.). Reaction Buffer contained 10 mM HEPES, pH 7.2, 10 mM MgCl2, 0.01% Tween 20, 2 mM DTT. […] PIM reactions were carried out in a final volume of 10 μL per well in a 384-well plate. […] Substrate conversion was calculated from the electropherogram using HTS Well Analyzer software (Caliper Life Sciences, Hopkinton, Mass.). Ki values for the test compound were calculated.
Where a name gives a salt, the structure may show the parent alone.
Endpoint Name: Ki (nM)
The response must be a number in nM with no trailing unit.

>  <Compound>
FC(F)(F)Cn1cc(-c2cc3c(cn2)cnn3-c2cccc(N3CC4(CCCCN4)C3)n2)cn1 [Compound 269]

>  <Ki, nM>
15.7

$$$$

Q: For the compound OCCOc1cncc(-c2cc3c(cn2)cnn3-c2cccc(N3CCNCC3)n2)n1 [Compound 278, dihydrochloride] , report Ki.
Ans: 0.163

Q: Identify measured Ki associated with Cc1ccc(-n2ncc3cnc(-c4cnn(CC(F)(F)F)c4)cc32)nc1N1CCNC[C@H](O)C1 (single isomer, unassigned) [Compound 263]
Ans: 0.253
